System tested: T1, human ANGPTL8 (human, UniProt Q6UXH0 22-198)
T1 construct: Biotinylated in the ELISA assays; also called hANGPTL8; free ANGPTL8
T1 sequence: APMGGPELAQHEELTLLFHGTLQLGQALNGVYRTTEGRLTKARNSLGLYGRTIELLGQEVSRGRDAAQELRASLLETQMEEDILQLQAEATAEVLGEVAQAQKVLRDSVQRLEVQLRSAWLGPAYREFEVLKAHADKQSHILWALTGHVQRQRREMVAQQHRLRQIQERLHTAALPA
Test name: single point ELISA; IgG captured by anti-human Fc; biotinylated antigen at 25 nM
Lab note: compare OD at 560 nm against 0.09 OD 560 nm. Equal or greater, write 1.0. Smaller, write 0.0.

anti-ANGPTL3/8 complex Ab having a LC of SEQ ID NO:5 and a HC of SEQ ID NO:6 (antibody, human IgG4 S228P, kappa, F234A L235A, V domains shown, In the ELISA assays tested as IgG from CHO supernatants; also called the Ab) VH: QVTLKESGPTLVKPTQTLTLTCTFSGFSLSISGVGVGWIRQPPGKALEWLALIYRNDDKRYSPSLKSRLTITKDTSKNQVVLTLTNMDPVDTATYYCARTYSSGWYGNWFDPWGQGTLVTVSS VL: DIVMTQTPLSLPVTPGEPASISCRSSQSLLDSDDGNTYLDWYLQKPGQSPQLLIYMLSYRASGVPDRFSGSGSGTDFTLKISRVEAEDVGIYYCMQRIEFPLTFGGGTKVEIKR    0.0
Ab with LC variant having a D33A mutation (SEQ ID NO:22) and a HC of SEQ ID NO:6 (antibody, human IgG4 S228P, kappa, F234A L235A, V domains shown, also called D33A Variant Ab; D33A Ab) VH: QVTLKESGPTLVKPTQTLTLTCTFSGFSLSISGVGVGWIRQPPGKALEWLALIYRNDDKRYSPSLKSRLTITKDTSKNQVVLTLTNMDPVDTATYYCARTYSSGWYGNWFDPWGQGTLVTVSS VL: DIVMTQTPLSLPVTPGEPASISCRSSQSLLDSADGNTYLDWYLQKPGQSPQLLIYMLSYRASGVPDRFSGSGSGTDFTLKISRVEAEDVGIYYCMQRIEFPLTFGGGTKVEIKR    1.0
Ab with LC variant having a M56T mutation (SEQ ID NO:24) and a HC of SEQ ID NO:6 (antibody, human IgG4 S228P, kappa, F234A L235A, V domains shown) VH: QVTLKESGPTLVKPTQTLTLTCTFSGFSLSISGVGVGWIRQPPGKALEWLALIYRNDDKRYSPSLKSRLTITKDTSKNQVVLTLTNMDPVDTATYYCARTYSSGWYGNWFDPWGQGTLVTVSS VL: DIVMTQTPLSLPVTPGEPASISCRSSQSLLDSDDGNTYLDWYLQKPGQSPQLLIYTLSYRASGVPDRFSGSGSGTDFTLKISRVEAEDVGIYYCMQRIEFPLTFGGGTKVEIKR    0.0

[in] In plain terms: is recorded OD at 560 nm at least 0.09 OD 560 nm for Ab with LC variant having a E99Q mutation (SEQ ID NO:25) and a HC of SEQ ID NO:6 (antibody, human IgG4 S228P, kappa, F234A L235A, V domains shown, also called E99Q Variant Ab; E99Q Ab) VH: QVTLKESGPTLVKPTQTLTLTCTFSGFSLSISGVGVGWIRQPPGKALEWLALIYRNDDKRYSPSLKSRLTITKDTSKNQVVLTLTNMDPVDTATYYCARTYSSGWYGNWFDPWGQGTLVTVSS VL: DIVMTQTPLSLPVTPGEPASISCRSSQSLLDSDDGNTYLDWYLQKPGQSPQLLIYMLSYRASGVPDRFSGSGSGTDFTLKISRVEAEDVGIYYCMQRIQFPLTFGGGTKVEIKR ?
[out] 1.0

[in] Does the binder Ab with LC variant having a D33T mutation (SEQ ID NO:23) and a HC of SEQ ID NO:6 (antibody, human IgG4 S228P, kappa, F234A L235A, V domains shown, also called D33T Ab) VH: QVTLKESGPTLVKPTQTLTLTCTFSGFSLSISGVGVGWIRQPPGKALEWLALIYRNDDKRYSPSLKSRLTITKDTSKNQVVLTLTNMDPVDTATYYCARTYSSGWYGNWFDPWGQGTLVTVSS VL: DIVMTQTPLSLPVTPGEPASISCRSSQSLLDSTDGNTYLDWYLQKPGQSPQLLIYMLSYRASGVPDRFSGSGSGTDFTLKISRVEAEDVGIYYCMQRIEFPLTFGGGTKVEIKR have recorded OD at 560 nm that is 0.09 OD 560 nm or more?
[out] 0.0

[in] Is OD at 560 nm at least 0.09 OD 560 nm? Consider Ab with LC variant having a D31S mutation (SEQ ID NO:21) and a HC of SEQ ID NO:6 (antibody, human IgG4 S228P, kappa, F234A L235A, V domains shown, also called D31S Variant Ab; D31S Ab) VH: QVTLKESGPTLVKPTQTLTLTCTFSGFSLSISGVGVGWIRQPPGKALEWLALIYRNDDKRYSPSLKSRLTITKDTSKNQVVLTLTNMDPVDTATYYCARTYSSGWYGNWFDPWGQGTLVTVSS VL: DIVMTQTPLSLPVTPGEPASISCRSSQSLLSSDDGNTYLDWYLQKPGQSPQLLIYMLSYRASGVPDRFSGSGSGTDFTLKISRVEAEDVGIYYCMQRIEFPLTFGGGTKVEIKR
[out] 0.0
